- Test Target: T1, Histidine-tagged human 4-1BB protein (h4-1BB-His) (human, UniProt Q07011 24-186)
- T1 construct: not shown: histidine tag
- Test Details: SPR (Biacore T200), antibody on Protein A chip, h4-1BB-His injected;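 further: dissociation phase followed for 300 s, Kd derived as koff divided by kon from the kinetic fit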
Quick reference: pKd of the listed items.
Would you please state pKd, meaning minus log10 of the concentration in mol/L, as a bare number?

Here's what some known entries look like.
{"Binder": "1C4-H4K4-IgG4 (antibody, V domains shown, humanized) VH: QGQMVQSGAEVKKPGASVKLSCKTSGFTFSSSYINWLRQAPGQSLEWIAWIFAGTGGTYYNQKFTGRAQLTVDTSASTAYMELSSLRSEDTAIYYCARHSPRATLFDFWGQGTTLTVSS VL: EIVLTQSPATLSASPGERVTMSCRASSSVNHMHWYQQRPGFSPRAWIYATSNLASGIPARFSGSGSGTSYSLTISSLEPEDFATYYCQQWSSNPYTFGGGTKLEIK", "pKd": 7.71}
{"Binder": "5F9-H1K4-IgG4 (antibody, V domains shown, humanized) VH: QVQLQESGPGLVKPSETLSLTCTVSGFSLTTYDISWVRQPPGKGLEWIGVIWTGGGTNYNSSFMSRVTISKDTSKNQVSLKLSSVTAADTAVYYCERVDYWGQGTTVTVSS VL: DVVMTQSPLSLPVTLGDPASISCRSSQSLVHSNGNTYLHWYLQRPGQSPKLLIYKVSNRFSGVPDRFSGSGSGTAFTFKISRVEAEDVGVYYCSQNTHVPWTFGGGTKLEIK", "pKd": 8.00}

Next item in the queue.
q: Hello, please tell me recorded pKd for this one: 6A5-H3K3-IgG2 (antibody, V domains shown, humanized) VH: QVQLVQSGAEVKKPGSSVKLSCKASGYTFSSYWINWVKQAPGQGLEWIGNIYPSDSYTNYNQKFKDKATLTVDKSTSTAYMELSSLRSEDTAVYYCTRTWEFYYDSVFDYWGQGTTLTVSS VL: DIQMTQSPSSLSASLGERVTITCKASQDINSYLSWFQQKPGKAPKTLIYRANRLVDGVPSRFSGSGSGQDFTLTISSLQPEDIATYYCLQYDELPPTFGGGTKVEIK
a: 9.60
